B1: library; numbered along this chain (parent)
chain: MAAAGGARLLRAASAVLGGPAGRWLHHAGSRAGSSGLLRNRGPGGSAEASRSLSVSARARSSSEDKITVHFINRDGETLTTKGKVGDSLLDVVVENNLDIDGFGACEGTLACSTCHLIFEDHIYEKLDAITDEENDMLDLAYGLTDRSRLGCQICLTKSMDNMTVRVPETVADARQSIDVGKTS

variants of: B1; test: scaled log2 fold change in cell abundance, elesclomol vs control (0 = silent mean, 1 = nonsense mean) (scaled log2 ratio); higher = higher viability under elesclomol (loss of FDX1 cuproptosis function); details: with ABC1 FDX1 KO; elesclomol 5 nM; glucose 10 mM; 14 days;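 further: variant abundance is its share of total variant reads in each endpoint sample, from next-generation sequencing of the integrated ORF PCR-amplified out of genomic DNA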
Recorded scaled log2 fold change for the following variants
Respond using a number only.

So what does the record say about scaled log2 fold change for S50K ?
-0.433

Field entry: L89G
0.853
